Test system: MS2 coat protein
ASSAY: apparent KD of MS2 coat protein; designed switch direction (-1 OFF switch, 1 ON switch): 1; higher = weaker reporter binding
TEST CONTEXT: Eterna round: R95; input ligand: microRNA oligo, concentration not stated
Think of 30 nM as a floor: if apparent KD of MS2 coat protein stands on it or above, it is yes; beneath it, no.

{"columns": ["SEQUENCE CHAIN", "LABEL VALUE"],
 "data": [
  ["UGCAUACAUGAGGAUCACCCAUGUCUACGAUGUCGAGGAUAUGGAUUGCCGUGAGGCGUGCCAGAAGGCGAAGUGG [Same State 1 - Mod of Vinnie Teenbexe v.2] (puzzle: Same State 1)", "yes"],
  ["AAUAAACAUGAGGAUCACCCAUGUAGUGCUUUAGCAGGAUAUGUGAGGAUCAAAUCCAUGGCAGAAGGGUUAUGGC [Inondiorbi] (puzzle: Same State 1)", "yes"],
  ["UUUGGGUGGCUGGAGGAUAUUCUUGUGGUUACAUGAGGAUCACCCAUGUGUCGCGCGGUGCGCGAGGAGAAGGCUGGCGGCCGUU (puzzle: Same State 2)", "yes"],
  ["AUUAGUUGCGGGCAGGAUAUGUAUUAAAAUACAUGAGGAUCACCCAUGUGCGGGUAUAACACCCGACAGAAGGGCCAAUCGCGAC [Mat - Same State 2 - Mod of UCT - D93] (puzzle: Same State 2)", "yes"],
  ["AACCCACAUGAGGAUCACCCAUGUGUCUGAGGCACAGGAUAUCGACAGGCAAGACACCUGCGAGAAGGGUGACCUC [Same State 1 - Mod of Vinnie Diatater v.1] (puzzle: Same State 1)", "no"]
]}

* * *

System: K4 kissing-loop RNA reporter;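 further: bound reporter read as fluorescence of individual clusters on recovered sequencing chips by microscopy, with normalized cluster intensities fitted with a binding model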
ASSAY: apparent KD of K4 kissing-loop reporter; higher = weaker reporter binding
TEST CONTEXT: Eterna round: R107; input ligand: none
REPORTED PROPERTY: apparent KD of K4 kissing-loop reporter (nM)

{"columns": ["SEQUENCE CHAIN", "TARGET ENTITY", "REPORTED PROPERTY", "ENDPOINT UNIT", "RECORDED RESULT"],
 "data": [
  ["AGAUUCGACACGGCCGCCACUUGUGGUGGAUUAUCCUAUGUCGAACAUGAGUGAUGUUCAUGUACAAGGACCGGGUGUUGAGUCU [KL-XTryp-B6 #analogue]", "K4 kissing-loop RNA reporter", "apparent KD of K4 kissing-loop reporter", "nM", 421],
  ["UUUUUCGCGUUUGAUACCAGCAGAGUUGUUCGUGUCUGGAACAUGAGUGAUGUUCAUGUCUGCCCUUGGCAGCAAACGGGAGAAG [KL-XTheo-B13]", "K4 kissing-loop RNA reporter", "apparent KD of K4 kissing-loop reporter", "nM", 103],
  ["ACAGGAUCGAAAGAUCCUGAGCAGUCUAACCGAGGACCGGUACGGCCGCCACUCGGAGUGAUGUUCCGAGGACUGCAAAAUAAAA [#SwitchBubble 2 #CoaxialStacking]", "K4 kissing-loop RNA reporter", "apparent KD of K4 kissing-loop reporter", "nM", 298],
  ["GUUACGCAUGGAAGGAGCGCACUCCGGUUGAUCAACACAGUGAUGUUGUGGUUCAUUCGAAUGCAGGUAGGUCGCCAUGUGUAAC [Ex Arginine B K4 16]", "K4 kissing-loop RNA reporter", "apparent KD of K4 kissing-loop reporter", "nM", 1100],
  ["AAACAAGAUGCAGGAUAUACGGACCCAGUGAUGUUGGGUAGAAUUGUCCCGGCAAUCCUUGUGGCAGUAGAAGGGCAAUAAAAGA [Gexeraora]", "K4 kissing-loop RNA reporter", "apparent KD of K4 kissing-loop reporter", "nM", 169],
  ["GCCGCCGCGGCAGGAUAUAGGUUCAUGGAGUGAUGUUCCAUAACCCGAGUGAUGUUCGUUAUCCGCCUAGAAGGGCCGCGGCGGC", "K4 kissing-loop RNA reporter", "apparent KD of K4 kissing-loop reporter", "nM", 205],
  ["CGAGAAUGUCGACAGUCAUCGGUCCAUGCACGAGGACCGGUACGGCCGCCACUCGAGCGUGGCAGUGAUGUUGCCAGCGCACUAA [KL-XTryp-A14]", "K4 kissing-loop RNA reporter", "apparent KD of K4 kissing-loop reporter", "nM", 86.3],
  ["UAUUUAAAUAAAAUAAAAUAAAUUGCUGAUACCAGAGUCAAUUGACUCCCUUGGCAGCGGAUCGAGUGAUGUUCGUAAAAUUUAU [AK2.1 SS Theophylline A]", "K4 kissing-loop RNA reporter", "apparent KD of K4 kissing-loop reporter", "nM", 30.8],
  ["UGUCAUUGGUCUGAUACCAGCUGAUCGGAAACGAUCUUGCUGGAGUGAUGUUCCAAGUAAAGCCCUUGGCAGCAGACCGAUGACU [TheoBS 9 #SwitchBubble #StaticStem]", "K4 kissing-loop RNA reporter", "apparent KD of K4 kissing-loop reporter", "nM", 70.6],
  ["ACCAUCAAAGAUGGCCAGGACUCCGCUGAUACCAGUGUGAAAACACUCCCUUGGCAGCAGGUGAGUGAUGUUCACAGUCCAUGGA [Omel KL Theo A SS B v3]", "K4 kissing-loop RNA reporter", "apparent KD of K4 kissing-loop reporter", "nM", 150],
  ["AAGUAAUUAAUAAUUUAUAUAAGUUAAACAGAGGAUAUGCAUUAUUGCAGAAGGCUGAAUGCAGUGAUGUUGCAAUGAUUAUUUA [JR_SSFMNA_Sub001]", "K4 kissing-loop RNA reporter", "apparent KD of K4 kissing-loop reporter", "nM", 58.3],
  ["AUUAAUUUCAGAGGAUAUCGUGAUUUUGUUUAAUUUAUUCAUUUGUGCAGUGAUGUUGCUAAUAUUCGAGAAGGCUGAUUUAUAA [whbob_Ex_FMNB__2th225]", "K4 kissing-loop RNA reporter", "apparent KD of K4 kissing-loop reporter", "nM", 63.3],
  ["GCCGUACGCAUGGAUACCAGCUAUUAGAGUGAUGUUCUAUGGCCCUGCCAGAGUAGCUGUAGCCCUUGGCAGCCAUGCGUACGGC", "K4 kissing-loop RNA reporter", "apparent KD of K4 kissing-loop reporter", "nM", 130]
]}

* * *

System: MS2 coat protein
ASSAY: apparent KD of MS2 coat protein; higher = weaker reporter binding
TEST CONTEXT: Eterna round: R107; input ligand: theophylline 20 uM
Measured apparent KD of MS2 coat protein, listed per entry.

{"columns": ["SEQUENCE CHAIN", "ENDPOINT UNIT", "apparent KD of MS2 coat protein"],
 "data": [
  ["CUGGCAGGAUGAUCCGCUGUCAGGGCUGAUACCAGCCACGAAAGUGGCCCUUGGCAGCAGCAAACAUGAGGAUCACCCAUGUAAA [(T)''-(M)'-(T)'-(Theo)-(Ms2)_Design2]", "nM", 230],
  ["UUUUUCGCGUUUGAUACCAGCAGAGUUGUUCUGGUCUGGUACAUGAGGAUCACCCAUGUCUGCCCUUGGCAGCAAACGGGAGAAG [XTheo #30]", "nM", 15],
  ["GACAUAUGCUAUGCGCAGGCUACCCUCAGCCGAGGACCGGUACGGCCGCCACUCGUACUACCACAUGAGGAUCACCCAUGUUAUC [theeternabot_exclusion_MS2_Trp_A_29]", "nM", 28.4]
]}

* * *

System: MS2 coat protein
ASSAY: apparent KD of MS2 coat protein, switch ON state; designed switch direction (-1 OFF switch, 1 ON switch): -1; higher = weaker reporter binding
TEST CONTEXT: FMN input: 0 or 200 uM; Eterna round: R93 (includes R88 designs)
Think of 40 nM as a floor: if apparent KD of MS2 coat protein stands on it or above, it is MET; beneath it, NOT MET.

{"columns": ["SEQUENCE CHAIN", "LABEL VALUE"],
 "data": [
  ["AAAAUGUCAGGAUAUGCGAAGGCGUCUGACGGACGAGGAUUGCAGAAGGGACAUGAGGAUCACCCAUGUAAAAA [Mod Hyphema's Change in Energy -added G at 31]", "MET"],
  ["AGAAUACAUGAGGAUCACCCAUGUGAGGAUAUCCAAAGAAAAAGAAAAGAAAAGAAAAGGAGAAGGCACAAAAG [EX 1 May 13]", "MET"],
  ["AGAAUACAUGAGGAUCACCCAUGUGAGGAUAUGCAAAUAAAAAUAAAAUAAAAUAAAUGCAGAAGGCACGAAAG [EX 1 May 22]", "NOT MET"],
  ["AAAUGACAUGAGGAUCACCCAUGUCAGGAUAUGACUUGAAAAUAAAAUAAAAAACAUGUCAGAAGGGACAUGGG [Design 50: Sub-opt F]", "NOT MET"],
  ["AAAAAUGCAGGAUAUACGAACAUGUCAAAAGACGUGAAGGGACAUGAGGAUCACCCAUGUAGAAGGGUAAAGAA [JL Neck Breaker 14]", "MET"],
  ["GAAAAACAUGAGGAUCACCCAUGUAAGGAUAUGCGAAAAUAAAAUAAAAUAAAAUAAAGCAGAAGGUACAAAAA [Mat - Exclusion 1 - Eli mod - D1]", "NOT MET"],
  ["AAAGGACGAGGAUAUACAUGAGGAUCACCCAUGUAAAAAACAUAGUAAAAGAACUUGUGUAGAAGGCGUCCAAA [Meechl Ex3 2 R2 v7]", "MET"]
]}

Data provenance: the supplement of paper PMC9170038
